B1: LRRC45 (parent)
chain: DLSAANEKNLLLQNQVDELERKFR

# Variants of: B1
# Experimental protocol: protein stability index of a GFP-peptide fusion (GPS, HEK-293T) (PSI 1-6); higher = more stable;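 further: lentivirally expressed fusions sorted by FACS into six bins by GFP to DsRed ratio, PSI derived from sequencing read proportions per bin multiplied by bin number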
# Condition context: c terminus: a fixed tail appended
Entries annotated with measured protein stability index
Field format: numeric only.

Reference set, count: 5
- Variant description: "L10H"
  protein stability index: 4.62
- Variant description: "V16D"
  protein stability index: 4.12
- Variant description: "L10G"
  protein stability index: 4.77
- Variant description: "D1V"
  protein stability index: 4.34
- Variant description: "L12C"
  protein stability index: 4.31

Query block: What value of measured protein stability index is listed for A5Y ?
Result block: 3.87

Query block: What value of measured protein stability index is listed for A4D ?
Result block: 4.67

Query block: What value of measured protein stability index is listed for N9L ?
Result block: 3.54

Query block: What value of measured protein stability index is listed for V16W ?
Result block: 3.55

Query block: What value of measured protein stability index is listed for E7Y ?
Result block: 2.98

Query block: What value of measured protein stability index is listed for E20F ?
Result block: 2.54

Query block: What value of measured protein stability index is listed for Q13S ?
Result block: 3.98

Query block: What value of measured protein stability index is listed for R21G ?
Result block: 4.49

Query block: What value of measured protein stability index is listed for K22S ?
Result block: 4.15

The reported measurements were obtained from the supplement of paper PMC10567573.
